- Test target: T1, Rat HER3: CD33-[Rat HER3, residues 20-643]-TAG (rat, UniProt Q62799 20-643)
- T1 construct: also called ra HER3-Tag; not shown: C-terminal TAG (e.g. FLAG TAG)
- Protocol summary: solution equilibrium titration (SET), IgG, ECL read-out
Value type: Kd
Please answer in the form of a number followed by its unit of measurement.

Form field: reported Kd of MOR12606 (antibody, human IgG1, kappa, V domains shown, Tested as IgG) VH: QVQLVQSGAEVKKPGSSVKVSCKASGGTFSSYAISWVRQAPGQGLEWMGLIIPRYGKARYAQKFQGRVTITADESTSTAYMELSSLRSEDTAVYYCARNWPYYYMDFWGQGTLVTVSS VL: DIVLTQSPATLSLSPGERATLSCRASQNIVFNLAWYQQKPGQAPRLLIYDASNRATGVPARFSGSGSGTDFTLTISSLEPEDFAVYYCQQTKSKPSPTFGQGTKVEIKR
8.1 nM
